B1: SPRY1 (parent)
chain: WIHRPGCRCKNSNTVYCKLESCPS

variants of: B1; assay: protein stability index of a GFP-peptide fusion (GPS, HEK-293T) (PSI 1-6); higher = more stable; conditions: c terminus: a fixed tail appended;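 note: lentivirally expressed fusions sorted by FACS into six bins by GFP to DsRed ratio, PSI derived from sequencing read proportions per bin multiplied by bin number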
Test readout: protein stability index
Give the value as a plain number.

Asked: Supply protein stability index value. Item: `S12T`
Given back: 2.28

Asked: State its protein stability index for this variant: `C17T`
Given back: 1.65

Asked: Specify protein stability index for `G6E` and stop.
Given back: 3.01

Asked: Give a short answer stating reported protein stability index for `H3I` .
Given back: 1.74

Asked: Supply measured protein stability index of `N13H` in your reply.
Given back: 1.91

Asked: Give reported protein stability index value for `E20V`
Given back: 1.77

Asked: Return protein stability index (reported value) for this variant: `C7A`
Given back: 2.35

Asked: Using the record for `Y16C` , state its measured protein stability index.
Given back: 2.69

Asked: Give the reported protein stability index for this variant. `Y16F`
Given back: 1.74

Asked: Input `T14A` , output reported protein stability index.
Given back: 2.89

Asked: Write down protein stability index measured for item `V15N`
Given back: 2.68
